We begin with a simple list: items and their reported Ventricular EC25.
SYSTEM: Porcine ventricle myofibrils (ventricular myosin ATPase) (Sus scrofa, UniProt P79293)
Construct: Myofibrils from porcine cardiac muscle was isolated from the left ventricle of Yucatan minipigs; tissue Exemplar Genetics; host or cells: left ventricle of Yucatan minipigs, myofibrils prepared in house
Sequence (P79293 whole entry): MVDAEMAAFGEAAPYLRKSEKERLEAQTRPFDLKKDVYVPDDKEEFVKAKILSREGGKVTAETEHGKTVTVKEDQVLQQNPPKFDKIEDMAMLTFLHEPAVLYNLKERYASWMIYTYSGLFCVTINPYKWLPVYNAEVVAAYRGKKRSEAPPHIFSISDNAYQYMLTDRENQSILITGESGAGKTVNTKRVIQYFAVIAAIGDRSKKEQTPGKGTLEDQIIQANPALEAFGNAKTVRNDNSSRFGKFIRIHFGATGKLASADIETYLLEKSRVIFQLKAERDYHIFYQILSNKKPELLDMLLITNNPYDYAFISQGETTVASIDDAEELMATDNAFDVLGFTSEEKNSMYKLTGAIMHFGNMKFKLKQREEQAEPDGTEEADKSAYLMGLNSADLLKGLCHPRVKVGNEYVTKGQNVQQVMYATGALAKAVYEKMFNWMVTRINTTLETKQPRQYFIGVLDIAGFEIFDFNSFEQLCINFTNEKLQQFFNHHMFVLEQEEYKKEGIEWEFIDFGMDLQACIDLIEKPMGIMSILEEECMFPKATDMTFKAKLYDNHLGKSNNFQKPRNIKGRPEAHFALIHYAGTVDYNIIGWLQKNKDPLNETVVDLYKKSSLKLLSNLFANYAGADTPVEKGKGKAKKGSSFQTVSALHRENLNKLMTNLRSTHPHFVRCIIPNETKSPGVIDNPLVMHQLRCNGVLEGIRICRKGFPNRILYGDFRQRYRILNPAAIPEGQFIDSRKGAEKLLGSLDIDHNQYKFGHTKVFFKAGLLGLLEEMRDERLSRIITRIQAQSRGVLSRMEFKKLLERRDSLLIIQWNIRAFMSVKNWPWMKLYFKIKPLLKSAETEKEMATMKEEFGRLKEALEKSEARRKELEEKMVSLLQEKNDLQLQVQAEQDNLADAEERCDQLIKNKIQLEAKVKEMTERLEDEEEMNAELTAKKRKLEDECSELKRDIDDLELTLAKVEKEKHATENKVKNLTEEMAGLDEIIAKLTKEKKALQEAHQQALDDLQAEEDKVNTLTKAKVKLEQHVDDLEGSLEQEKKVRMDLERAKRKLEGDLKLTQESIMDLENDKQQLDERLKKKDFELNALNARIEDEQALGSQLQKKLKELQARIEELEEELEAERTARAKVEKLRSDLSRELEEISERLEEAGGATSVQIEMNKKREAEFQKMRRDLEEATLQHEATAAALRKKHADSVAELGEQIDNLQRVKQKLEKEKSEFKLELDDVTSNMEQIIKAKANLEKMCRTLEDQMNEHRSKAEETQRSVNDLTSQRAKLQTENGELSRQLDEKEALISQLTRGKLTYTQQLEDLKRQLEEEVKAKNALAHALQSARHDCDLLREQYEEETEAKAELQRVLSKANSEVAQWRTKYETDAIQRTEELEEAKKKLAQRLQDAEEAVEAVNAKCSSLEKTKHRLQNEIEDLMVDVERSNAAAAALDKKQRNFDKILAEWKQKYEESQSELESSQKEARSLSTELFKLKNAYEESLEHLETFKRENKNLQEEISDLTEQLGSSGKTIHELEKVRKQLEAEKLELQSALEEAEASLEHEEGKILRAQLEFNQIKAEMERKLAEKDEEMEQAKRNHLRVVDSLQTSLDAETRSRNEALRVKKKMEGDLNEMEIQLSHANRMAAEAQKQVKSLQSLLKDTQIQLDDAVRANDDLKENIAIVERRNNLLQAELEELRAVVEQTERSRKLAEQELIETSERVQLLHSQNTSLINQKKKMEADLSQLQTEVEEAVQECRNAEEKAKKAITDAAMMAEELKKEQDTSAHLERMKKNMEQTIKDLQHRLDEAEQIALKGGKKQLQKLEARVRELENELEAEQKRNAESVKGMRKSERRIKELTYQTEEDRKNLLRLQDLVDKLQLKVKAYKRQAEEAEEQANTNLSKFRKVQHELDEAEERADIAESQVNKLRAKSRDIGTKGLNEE
MEASUREMENT DESCRIPTION: Myofibril ATPase assay, porcine ventricle myofibrils
Assay type: biochemical, porcine (Yucatan minipigs)
REPORTED CONDITIONS: porcine ventricle myofibrils; Y75 value
Report as a plain number; the unit µM is understood.

Cc1c(CC(=O)N[C@H](C)c2ccc(C#N)cc2F)c(=O)[nH]c2ccc(C(F)(F)F)nc12 (single isomer, unassigned) | 9.68
Cc1nccc2[nH]c(=O)c(CC(=O)N[C@H](CCO)c3ccc(F)cc3F)c(C)c12 (single isomer, unassigned) | 100.00
COc1cccc([C@H](C)NC(=O)Cc2c(C)c3c(C)nccc3[nH]c2=O)c1 (single isomer, unassigned) | 100.00
Cc1nccc2[nH]c(=O)c(CC(=O)N[C@@H](CO)c3ccccn3)c(C)c12 (single isomer, unassigned) | 100.00
C[C@H](NC(=O)Cc1cc2c(C#N)nccc2[nH]c1=O)c1ccc(F)cn1 | 39.76

Switching to the query record.
Enquiry: Return Ventricular EC25 (reported value) for this compound: Cc1c([C@@H](C)C(=O)N[C@@H](C)c2ccc(F)cc2F)c(=O)[nH]c2ccnc(F)c12 (single isomer, unassigned)
Return: 1.33

====

Tested on: Porcine atria myofibrils (atrial myosin ATPase)
MEASUREMENT DESCRIPTION: Myofibril ATPase assay, porcine atria myofibrils
Type: biochemical
REPORTED CONDITIONS: Y75 value (no ‡ mark); porcine atria myofibrils
ASSAY ENDPOINT: Atrial EC25 (nM)
Report as a plain number; the unit nM is understood.

Completed entries (count: 4):
Cc1c(CC(=O)N[C@H](C)c2ncc(F)cc2F)c(=O)[nH]c2ccc(F)c(C(F)(F)F)c12 | 3290
C[C@@H](NC(=O)Cc1c(C2CC2)c2c(F)c(F)ccc2[nH]c1=O)c1ccc(C#N)nn1 (single isomer, unassigned) | 100000
Cc1c(CC(=O)N[C@H](C)c2ncc(C#N)cc2F)c(=O)[nH]c2ccc(F)c(C(F)(F)F)c12 | 30
C[C@H](NC(=O)Cc1cc2ccc(F)cc2[nH]c1=O)c1ncc(C#N)cn1 (single isomer, unassigned) | 100000

Switching to the query record.
Enquiry: Return Atrial EC25 (reported value) for this compound: Cc1c(CC(=O)N[C@@H](C)c2ccc(C#N)cn2)c(=O)[nH]c2cccc(F)c12
Return: 110

====

Tested on: Porcine atria myofibrils (atrial myosin ATPase)
MEASUREMENT DESCRIPTION: Myofibril ATPase assay, porcine atria myofibrils
Format: biochemical
REPORTED CONDITIONS: Y75 value (no ‡ mark); porcine atria myofibrils
We begin with a simple list: items and their reported Atrial EC25.
Report as a plain number; the unit nM is understood.

Cc1c(F)ccc2[nH]c(=O)c(CC(=O)N[C@H](C)c3ncc(C#N)cc3F)c(C#N)c12 | 1900
Cc1c(C(F)(F)C(=O)N[C@H](C)c2ncc(C#N)cc2F)c(=O)[nH]c2cccc(F)c12 (single isomer, unassigned) | 170

Switching to the query record.
Enquiry: Return Atrial EC25 (reported value) for this molecule: C[C@H](NC(=O)[C@@H](C)c1c(C(F)(F)F)c2cc(F)ccc2[nH]c1=O)c1ccc(F)cc1F (single isomer, unassigned) [compound 99]
Return: 130
